Reference source for all entries: patent US20130287781A1

target: T1, GST-human NOGO-A56 (human); assay: SPR (Biacore), GST-human NOGO-A56 amine-coupled to CM5, antibody flowed over, 37 C
T1 construct: Expressed in E. coli BL21 from pGEX-6P1 and purified on glutathione-sepharose; the GST tag is part of the protein in the assays; also called GST-Nogo-A 5+6; GST Nogo-A 5 + 6
T1 sequence (chain, as listed by the source limits assumed): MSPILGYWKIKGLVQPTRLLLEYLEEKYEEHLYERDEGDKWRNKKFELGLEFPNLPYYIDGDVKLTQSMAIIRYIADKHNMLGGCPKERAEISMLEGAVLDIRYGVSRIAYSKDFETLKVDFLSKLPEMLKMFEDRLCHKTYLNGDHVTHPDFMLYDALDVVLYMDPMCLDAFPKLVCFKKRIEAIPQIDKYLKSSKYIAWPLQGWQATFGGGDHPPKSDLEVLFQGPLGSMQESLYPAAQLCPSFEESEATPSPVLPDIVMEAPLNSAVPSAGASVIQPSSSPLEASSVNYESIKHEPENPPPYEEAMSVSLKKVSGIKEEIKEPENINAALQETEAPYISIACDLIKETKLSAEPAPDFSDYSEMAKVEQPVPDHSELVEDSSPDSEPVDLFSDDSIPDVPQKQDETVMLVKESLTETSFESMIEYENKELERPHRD
As shown below, each of these binders has a reported kon value.

Here are 2 binders together with their reported answers.
Binder | kon
H27L16 (antibody, human IgG1, kappa, V domains shown, IgG1 (L235A, G237A) / kappa; CAMPATH-1H signal (1-19) left out; also called H27FL L16FL) VH: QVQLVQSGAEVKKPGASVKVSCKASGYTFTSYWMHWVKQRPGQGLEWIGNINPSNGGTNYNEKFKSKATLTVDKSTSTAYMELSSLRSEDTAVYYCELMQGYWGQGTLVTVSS VL: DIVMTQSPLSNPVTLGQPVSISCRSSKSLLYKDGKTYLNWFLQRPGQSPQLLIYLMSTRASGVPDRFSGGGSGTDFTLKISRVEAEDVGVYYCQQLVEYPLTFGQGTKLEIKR | 7.18e+06 M⁻¹ s⁻¹
H28L13 (antibody, human IgG1, kappa, V domains shown, IgG1 (L235A, G237A) / kappa; CAMPATH-1H signal (1-19) left out; also called H28FL L13FL) VH: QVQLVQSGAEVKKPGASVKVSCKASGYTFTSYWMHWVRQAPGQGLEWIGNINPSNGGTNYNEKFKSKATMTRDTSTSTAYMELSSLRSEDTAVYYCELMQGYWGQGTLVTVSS VL: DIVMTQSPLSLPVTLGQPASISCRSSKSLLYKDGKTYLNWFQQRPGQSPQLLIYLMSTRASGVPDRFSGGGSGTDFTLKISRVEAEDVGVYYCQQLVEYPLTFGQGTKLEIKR | 7.43e+06 M⁻¹ s⁻¹

# context switch: different binder, same kon
Query :: Tell me the measured kon of H27L13 (antibody, human IgG1, kappa, V domains shown, IgG1 (L235A, G237A) / kappa; CAMPATH-1H signal (1-19) left out) VH: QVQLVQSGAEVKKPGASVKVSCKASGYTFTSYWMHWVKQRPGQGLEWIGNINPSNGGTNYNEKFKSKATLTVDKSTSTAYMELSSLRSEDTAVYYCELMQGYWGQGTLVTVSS VL: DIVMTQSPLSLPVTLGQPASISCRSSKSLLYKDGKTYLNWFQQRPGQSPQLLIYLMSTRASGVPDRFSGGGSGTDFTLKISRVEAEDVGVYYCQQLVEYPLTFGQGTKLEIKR , please.
Result :: 6.58e+06 M⁻¹ s⁻¹
